Origin of values: patent US20180265515A1

System: isolated recombinant JAK1 kinase domain (Homo sapiens, UniProt P23458)
Construct: The activity of the isolated recombinant JAK1 and JAK2 kinase domain was measured
Sequence (P23458 875-1153 limits assumed): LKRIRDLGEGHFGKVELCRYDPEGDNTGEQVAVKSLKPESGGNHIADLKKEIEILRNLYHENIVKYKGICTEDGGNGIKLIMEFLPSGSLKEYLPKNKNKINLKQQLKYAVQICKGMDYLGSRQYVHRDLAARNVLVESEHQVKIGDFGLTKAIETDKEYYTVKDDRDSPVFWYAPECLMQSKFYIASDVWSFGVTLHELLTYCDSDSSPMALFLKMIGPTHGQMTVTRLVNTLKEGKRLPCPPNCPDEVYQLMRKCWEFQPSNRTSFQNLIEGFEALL
Assay Overview: JAK1 enzyme assay (Caliper LabChip, Ki)
Type: biochemical
Study Conditions: recombinant JAK1 kinase domain, 25 μM ATP
pKi reference
// pKi here means minus log10 of the molar concentration (mol/L)

[
  {
    "Compound": "CC(C)Sc1ccc(OC(F)F)c(-c2nn(CC(=O)N3CCN(CC4CCN(CC(=O)N(C)C)CC4)CC3)cc2NC(=O)c2cnn3cccnc23)c1 [Example 140]",
    "pKi": 9.20
  }
]

[in] Would you mind telling me what pKi value was observed for CC(C)Sc1ccc(OC(F)F)c(-c2nn(CC(=O)N3CCC(N(C)C4COC4)CC3)cc2NC(=O)c2cnn3cccnc23)c1 [Example 110] ?
[out] 9.39

[in] GET /values?readout=pKi&item= CSc1ccc(OC(F)F)c(-c2nn(CC(=O)N3CC=CCC3)cc2NC(=O)c2cnn3cccnc23)c1 [Example 67]
[out] 9.72

[in] I am curious: what pKi value has been reported for CC(C)Sc1ccc(OC(F)F)c(-c2nn(CC(=O)N3CCC(N4CCn5cncc5C4)CC3)cc2NC(=O)c2cnn3cccnc23)c1 [Example 139] ?
[out] 9.29

---

System: isolated recombinant JAK2 kinase domain (Homo sapiens, UniProt O60674)
Construct: The activity of the isolated recombinant JAK1 and JAK2 kinase domain was measured
Sequence (O60674 849-1124 limits assumed): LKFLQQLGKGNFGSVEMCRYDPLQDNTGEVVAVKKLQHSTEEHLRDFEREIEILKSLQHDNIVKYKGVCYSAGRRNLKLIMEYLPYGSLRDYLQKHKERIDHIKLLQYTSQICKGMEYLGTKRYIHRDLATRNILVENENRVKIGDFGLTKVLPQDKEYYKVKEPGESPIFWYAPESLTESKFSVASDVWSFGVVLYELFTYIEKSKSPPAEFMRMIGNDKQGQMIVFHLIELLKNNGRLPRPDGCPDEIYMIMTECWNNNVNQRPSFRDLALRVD
Assay Overview: JAK2 enzyme assay (Caliper LabChip, Ki)
Study Conditions: 25 μM ATP
Readout Kind: pKi
pKi (log units): -log10 of the concentration in mol/L.

Here are 4 compounds together with their reported answers.
[
  {
    "Smiles Notation": "CSc1ccc(OC(F)F)c(-c2nn(CC(=O)N3CCC(CN4CCN(CC(=O)N(C)C)CC4)CC3)cc2NC(=O)c2cnn3cccnc23)c1",
    "pKi": 9.29
  },
  {
    "Smiles Notation": "CSc1ccc(OC(F)F)c(-c2nn(CC(=O)N3CCC(N4CC(C#N)C4)CC3)cc2NC(=O)c2cnn3cccnc23)c1",
    "pKi": 9.47
  },
  {
    "Smiles Notation": "CCN1CCN(C(=O)Cn2cc(NC(=O)c3cnn4cccnc34)c(-c3cc(SC4COC4)ccc3OC(F)F)n2)CC1",
    "pKi": 8.74
  },
  {
    "Smiles Notation": "CSc1ccc(OC(F)F)c(-c2n[nH]cc2NC(=O)c2cnn3cccnc23)c1",
    "pKi": 10.39
  }
]

[in] Find pKi (isolated recombinant JAK2 kinase domain (Homo sapiens, UniProt O60674)) for the entry CSc1ccc(OC(F)F)c(-c2nn(CC(=O)N3CCN(CC4CCOCC4)CC3)cc2NC(=O)c2cnn3cccnc23)c1
[out] 9.31

[in] Record CC(C)Sc1ccc(OC(F)F)c(-c2nn(CC(=O)N3CCC(N(C)CC(=O)N4CCOCC4)CC3)cc2NC(=O)c2cnn3cccnc23)c1 : what is its pKi with isolated recombinant JAK2 kinase domain (Homo sapiens, UniProt O60674)?
[out] 8.82

[in] Missing value: pKi, isolated recombinant JAK2 kinase domain (Homo sapiens, UniProt O60674), entry CSc1ccc(OC(F)F)c(-c2nn(CC(=O)N3CCC(N(C)CC(=O)N4CCC4)CC3)cc2NC(=O)c2cnn3cccnc23)c1 . Fill in?
[out] 9.21

[in] Hi! What's the reported pKi for CNCCn1cc(NC(=O)c2cnn3cccnc23)c(-c2cc(SC3COC3)ccc2OC(F)F)n1 on isolated recombinant JAK2 kinase domain (Homo sapiens, UniProt O60674)?
[out] 9.19
